Attribution: PubChem BioAssay AID330

test system: P388 leukemia ip, CD2F1 mice, survival T/C; assay: NCI In Vivo Anticancer Drug Screen. Data for tumor model P388 Leukemia (intraperitoneal) in CD2F1 (CDF1) mice; settings: endpoint: median survival time; dose: 400.0 mg/kg/injection; schedule: Q04DX003 (ip); vehicle: saline with Tween-80; higher = longer survival
Toxic doses and inconclusive results are not listed.
Consider the following molecules; for each one, report its T/C.

The examples below pair each entry with its known result.
* CCOC(=O)C(CCCCC(NC(C)=O)(C(=O)OCC)C(=O)OCC)(NC(C)=O)C(=O)OCC | 95 % of control
* CC1CCC(n2cnc3c(=S)nc[nH]c32)O1 (stereo unspecified) | 118 % of control
* CC(=O)C1=C(c2ccccc2)NC(=O)NC1c1ccco1 (stereo unspecified) | 90 % of control
* c1ccc2sc(SN3CCOCC3)nc2c1 | 95 % of control
* O=C1OC(=O)C2C3C=CC(C12)C1C2C(=O)OC(=O)C2C31 (stereo unspecified) | 96 % of control

Please turn your attention to the following entry.
What value of measured T/C is listed for `Nc1cc(=O)c2n[nH]nc2[nH]1` ? 107 % of control

###

tested on: P388 leukemia ip, CD2F1 mice, survival T/C; assay: NCI In Vivo Anticancer Drug Screen. Data for tumor model P388 Leukemia (intraperitoneal) in CD2F1 (CDF1) mice; conditions: endpoint: median survival time; dose: 400.0 mg/kg/injection; schedule: Q04DX002 (ip); vehicle: saline with Tween-80; higher = longer survival
Inconclusive results and toxic doses are left out.
Consider the following compounds; for each one, report its T/C.

• Oc1cc(-c2ccc(Cl)cc2)c(O)cc1CN1CCOCC1 = 92 % of control

Hi there! I need T/C for each item below, if you can.
1. CCCCOP(O)(=S)OCCCC.[Er]
2. COC(=O)C1CC2C(=O)N(C)C=CC12 (stereo not given)
3. CC(=O)Nc1ccsc1S(=O)(=O)c1sccc1NC(C)=O

1. 95 % of control
2. 102 % of control
3. 98 % of control

Hi there! I need T/C for each item below, if you can.
1. CCO/C(C)=C(\C#N)C(Cl)=Nc1ccc(OC)cc1
2. Cn1c2ccccc2c2nnc(-n3nc(-c4ccccc4)cc3N)nc21
3. COc1ccc(C2ON=C(c3cc(C)cc(Br)c3O)C2[N+](=O)[O-])cc1 (stereo not given)
4. c1ccc(C2(N3CCOCC3)CSC2)cc1
5. CSc1nccc(=O)n1-c1ccc(C)cc1

1. 100 % of control
2. 91 % of control
3. 94 % of control
4. 98 % of control
5. 98 % of control

What value of measured T/C is listed for `Cc1cc(-c2ccccc2)c(C)c(-c2ccccc2)c1-c1ccccc1` ? 96 % of control

###

tested on: P388 leukemia ip, CD2F1 mice, survival T/C; test: NCI In Vivo Anticancer Drug Screen. Data for tumor model P388 Leukemia (intraperitoneal) in CD2F1 (CDF1) mice; details: endpoint: median survival time; dose: 6.25 mg/kg/injection; schedule: Q01DX009 (ip); vehicle: Klucel (hydroxypropylcellulose) (HPC); higher = longer survival
Inconclusive results and toxic doses are left out.
parameter measured: T/C

The examples below pair each entry with its known result.
• O=P(c1ccccc1)(c1ccccc1)c1ccccc1.O=P(c1ccccc1)(c1ccccc1)c1ccccc1.O=S(=O)(O)O.[Ni] = 99 % of control
• CCCCC([Se])=NCCC(C)C = 105 % of control
• CCCCOc1ccc(C(=O)OCCNC2CCCCC2)cc1N = 100 % of control
• CC(=O)[O][Hg][c]1c(N)c(Cl)cc(C)c1F = 86 % of control
• CC1=C2C(=CO[C@H](C)[C@H]2C)C(=O)C(C(=O)O)=C1O = 112 % of control
• COc1ccc(C(=O)/C=C/c2ccc3cc(OC)c(OC)cc3c2)cc1OC = 100 % of control
• C#CC1(O)CC2c3ccc(OC)cc3CCC2(C)C1 (centres undefined) = 117 % of control
• CCOC(=O)Nc1nc2ccc(SC#N)cc2s1 = 107 % of control

What value of measured T/C is listed for `CCCCCCC(/C=C/c1ccccc1)=N\O` ? 107 % of control

###

system: P388 leukemia ip, CD2F1 mice, survival T/C; test: NCI In Vivo Anticancer Drug Screen. Data for tumor model P388 Leukemia (intraperitoneal) in CD2F1 (CDF1) mice; conditions: endpoint: median survival time; dose: 100.0 mg/kg/injection; schedule: Q01DX005 (ip); vehicle: saline with Tween-80; higher = longer survival
Inconclusive results and toxic doses are left out.
parameter measured: T/C

- CC1(c2ccccc2)CCC(O)CC1CC(=O)O (stereo not drawn): 100 % of control
- Cc1cc2nnc(-c3ccc(C#N)cc3)n2c2nnnn12: 104 % of control
- O=[N+]([O-])c1ccc(N=NN2CCOC2)cc1: 103 % of control

Hi there! I need T/C for each item below, if you can.
1. N#CCCSC(=S)N1CCCC1=O
2. OCC1CC2C=CC1O2 (stereo not drawn)
3. CN(C)C(=S)C(C)(C)C
4. CC1NC(C)c2c(ccc3ccccc23)O1 (stereo not drawn)
5. O=c1ccc2[n+]([O-])c3ccc(O)cc3oc-2c1

1: 104 % of control; 2: 114 % of control; 3: 103 % of control; 4: 100 % of control; 5: 100 % of control

###

Consider the following compounds; for each one, report its T/C.
system: P388 leukemia ip, CD2F1 mice, survival T/C; assay: NCI In Vivo Anticancer Drug Screen. Data for tumor model P388 Leukemia (intraperitoneal) in CD2F1 (CDF1) mice; settings: endpoint: median survival time; dose: 400.0 mg/kg/injection; schedule: Q01DX009 (ip); vehicle: saline; higher = longer survival
Inconclusive results and toxic doses are left out.

- O=C(Oc1ccc[nH]c1=O)C1CC1: 100 % of control

Hi there! I need T/C for each item below, if you can.
1. C[C@]12C=CC(=O)C=C1CC[C@@H]1[C@@H]2C(=O)C[C@@]2(C)[C@H]1CC[C@]2(O)C(=O)CO
2. CCOC(=O)C(CNc1ccc(O)cc1)NC(=O)c1ccccc1 (stereo unspecified)
3. Cc1nnc(SCC2=C(C(=O)O)N3C(=O)C(NC(=O)Cn4cnnn4)C3SC2)s1 (stereo unspecified)
4. CCOC(=O)/C(=C/Nc1ccc(OCc2ccccc2)cc1)NC(=O)c1ccccc1
5. NCCC(=O)NC(Cc1cnc[nH]1)C(=O)O (stereo unspecified)

106 % of control
101 % of control
112 % of control
97 % of control
98 % of control

###

test system: P388 leukemia ip, CD2F1 mice, survival T/C; assay: NCI In Vivo Anticancer Drug Screen. Data for tumor model P388 Leukemia (intraperitoneal) in CD2F1 (CDF1) mice; settings: endpoint: median survival time; dose: 50.0 mg/kg/injection; schedule: Q01DX005 (ip); vehicle: saline with Tween-80; higher = longer survival
Inconclusive results and toxic doses are left out.
parameter measured: T/C

- CSCCC([NH-])C(=O)O.CSCCC([NH-])C(=O)O.[Zn+2] (stereo not drawn): 110 % of control
- O=C1CCCc2[nH]c3ccc(F)cc3c21: 91 % of control
- CC(C)n1c2c(c3ccccc3c1=O)C(=O)c1ccccc1-2: 86 % of control

Hi there! I need T/C for each item below, if you can.
1. CCOC(=O)c1cc2c(nc1C)-c1ccccc1OC2Nc1ccccc1 (stereo not drawn)
2. CC1(C)c2ccccc2C(=O)c2ccccc21
3. CC(C#N)(C#N)N=Nc1ccc(Br)cc1
4. O=C1NC(O)c2cccc([N+](=O)[O-])c2O1 (stereo not drawn)
5. O=c1c(=O)c2cc(O)ccc12
6. Cc1c(C)c(C)c(S(=O)(=O)OCCCl)c(C)c1C

1: 88 % of control; 2: 103 % of control; 3: 106 % of control; 4: 100 % of control; 5: 109 % of control; 6: 98 % of control

###

tested on: P388 leukemia ip, CD2F1 mice, survival T/C; experiment: NCI In Vivo Anticancer Drug Screen. Data for tumor model P388 Leukemia (intraperitoneal) in CD2F1 (CDF1) mice; conditions: endpoint: median survival time; dose: 100.0 mg/kg/injection; schedule: Q01DX009 (ip); vehicle: other; higher = longer survival
Toxic doses and inconclusive results are not listed.
Consider the following compounds; for each one, report its T/C.

The examples below pair each entry with its known result.
• COc1cc(Br)cc(C(=O)N2CCc3ccccc32)c1OC = 96 % of control
• COc1ccc(OC)c(CC(C(C)=O)C(C)=O)c1 = 106 % of control
• Cc1ccc([N+](=O)[O-])cc1NC(=O)Oc1ccccc1 = 90 % of control
• Nc1ccc(Cl)cc1N = 105 % of control

What value of measured T/C is listed for CCOC(=O)C1C/C(=N\OS(=O)(=O)c2ccc(C)cc2)c2ccc(OC)c(OC)c2C1 (stereo not given) ? 87 % of control
